# tgt: UniProtKB P47820
# assayMethodText: Evaluation of plasma inhibition of Angiotensin I converting enzyme activity in conscious rat 1 hour after intravenous administration at a dose of 10 mg/kg
# Type: functional, organism-based
# Parameters: dose 10 mg/kg
Is inhibition at least 90%? Then Condition met. If not, Condition not met.

CC(C)[C@H](S)C(=O)NC1(C(=O)N[C@@H](CCc2ccccc2)C(=O)O)CCCC1	Condition not met
CC(C)[C@H](S)C(=O)NC1(C(=O)N[C@@H](Cc2ccccn2)C(=O)O)CCCC1	Condition not met
CC(C)[C@H](S)C(=O)NC1(C(=O)N[C@@H](Cc2ccc(F)cc2)C(=O)O)CCCC1	Condition not met
O=C(O)[C@H](Cc1ccc(O)cc1)NC(=O)C1(NC(=O)[C@@H](S)Cc2ccccc2)CCCC1	Condition not met
CC(C)[C@H](S)C(=O)NC1(C(=O)N[C@@H](Cc2ccc(O)cc2)C(=O)O)CCOCC1	Condition not met
O=C(CS)NC1(C(=O)N[C@@H](Cc2ccc(O)cc2)C(=O)O)CCCC1	Condition not met
CC(C)[C@H](S)C(=O)NC1(C(=O)N[C@@H](Cc2c[nH]c3ccccc23)C(=O)O)CCCC1	Condition met
CC(C)[C@H](S)C(=O)NC1(C(=O)N[C@@H](Cc2ccsc2)C(=O)O)CCCC1	Condition met

----------
# tgt: UniProt:P47820
# assayMethodText: Evaluation of plasma inhibition of Angiotensin I converting enzyme activity in conscious rat 4 hours after intravenous administration at a dose of 10 mg/kg
# Type: functional, organism-based
# Parameters: dose 10 mg/kg
reportedEndpoint: inhibition

CC(C)[C@H](S)C(=O)NC1(C(=O)N[C@@H](Cc2ccc(O)cc2)C(=O)O)CC1	30%
CC(C)[C@H](S)C(=O)NC1(C(=O)N[C@@H](Cc2c[nH]c3ccccc23)C(=O)O)CCCC1	86%
O=C(CS)NC1(C(=O)N[C@@H](Cc2ccc(O)cc2)C(=O)O)CCCC1	7%
CC(C)[C@H](S)C(=O)NC1(C(=O)N[C@@H](Cc2ccc(O)cc2)C(=O)O)CCCC1	83%
CC(C)[C@H](S)C(=O)NC1(C(=O)N[C@@H](Cc2ccccn2)C(=O)O)CCCC1	28%
CC(C)[C@H](S)C(=O)NC(C)(C)C(=O)N[C@@H](Cc1ccc(O)cc1)C(=O)O	69%
CC(C)[C@H](S)C(=O)NC1(C(=O)N[C@@H](Cc2ccc(O)cc2)C(=O)O)CCOCC1	4%
CC(C)[C@H](S)C(=O)NC1(C(=O)N[C@@H](CCc2ccccc2)C(=O)O)CCCC1	79%
CC(C)[C@H](S)C(=O)NC1(C(=O)N[C@@H](Cc2ccsc2)C(=O)O)CCCC1	87%
CC(C)[C@H](S)C(=O)NC1(C(=O)N[C@@H](Cc2ccc(O)cc2)C(=O)O)Cc2ccccc2C1	24%
O=C(O)[C@H](Cc1ccc(O)cc1)NC(=O)C1(NC(=O)[C@@H](S)Cc2ccccc2)CCCC1	43%
CC(C)[C@H](S)C(=O)NC1(C(=O)N[C@@H](Cc2ccc(F)cc2)C(=O)O)CCCC1	38%
CC(C)[C@H](S)C(=O)NC1(C(=O)N[C@@H](Cc2cccs2)C(=O)O)CCCC1	44%

----------
# tgt: Angiotensin-converting enzyme (Rattus norvegicus) (UniProt P47820)
# Sequence (whole entry): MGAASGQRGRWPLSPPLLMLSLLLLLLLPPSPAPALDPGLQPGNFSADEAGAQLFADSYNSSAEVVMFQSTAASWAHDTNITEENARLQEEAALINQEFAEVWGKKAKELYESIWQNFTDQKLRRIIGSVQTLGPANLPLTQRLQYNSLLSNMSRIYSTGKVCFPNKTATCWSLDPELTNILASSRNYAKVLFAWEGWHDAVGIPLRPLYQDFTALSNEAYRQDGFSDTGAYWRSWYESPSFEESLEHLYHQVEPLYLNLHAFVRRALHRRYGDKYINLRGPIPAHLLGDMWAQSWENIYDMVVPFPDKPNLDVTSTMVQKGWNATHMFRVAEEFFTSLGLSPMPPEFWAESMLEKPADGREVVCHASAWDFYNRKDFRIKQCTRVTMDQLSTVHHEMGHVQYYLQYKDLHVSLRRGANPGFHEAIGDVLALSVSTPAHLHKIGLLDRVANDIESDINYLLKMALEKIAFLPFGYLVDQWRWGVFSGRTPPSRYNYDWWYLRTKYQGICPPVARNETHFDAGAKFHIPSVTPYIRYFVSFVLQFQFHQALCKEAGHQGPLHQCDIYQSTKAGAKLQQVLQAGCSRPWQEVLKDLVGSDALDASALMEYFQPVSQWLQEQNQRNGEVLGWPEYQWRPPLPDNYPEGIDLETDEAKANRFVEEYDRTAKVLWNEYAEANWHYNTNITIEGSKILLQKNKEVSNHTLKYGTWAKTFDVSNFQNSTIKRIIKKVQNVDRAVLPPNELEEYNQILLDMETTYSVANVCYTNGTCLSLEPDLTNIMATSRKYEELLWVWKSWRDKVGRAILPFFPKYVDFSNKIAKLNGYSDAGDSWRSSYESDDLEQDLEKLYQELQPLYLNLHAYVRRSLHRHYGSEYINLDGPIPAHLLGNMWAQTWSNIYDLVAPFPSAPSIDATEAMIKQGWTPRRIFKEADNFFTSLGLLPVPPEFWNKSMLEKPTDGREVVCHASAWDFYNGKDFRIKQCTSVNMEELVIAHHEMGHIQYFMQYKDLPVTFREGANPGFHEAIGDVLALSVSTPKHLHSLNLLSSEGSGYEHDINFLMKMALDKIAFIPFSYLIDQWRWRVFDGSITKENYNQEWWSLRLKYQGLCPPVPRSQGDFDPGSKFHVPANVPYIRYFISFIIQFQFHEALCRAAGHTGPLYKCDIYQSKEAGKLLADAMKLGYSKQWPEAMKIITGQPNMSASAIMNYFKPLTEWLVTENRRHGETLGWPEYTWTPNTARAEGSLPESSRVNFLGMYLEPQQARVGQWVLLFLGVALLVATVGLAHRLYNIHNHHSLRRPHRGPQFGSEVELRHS
# assayMethodText: Evaluation of plasma inhibition of Angiotensin I converting enzyme activity in conscious rat 6 hours after intravenous administration at a dose of 10 mg/kg
# Format: functional, organism-based
# Set-up: dose 10 mg/kg
reportedEndpoint: inhibition (%)

CC(C)[C@H](S)C(=O)NC1(C(=O)N[C@@H](Cc2c[nH]c3ccccc23)C(=O)O)CCCC1	82
CC(C)[C@H](S)C(=O)NC1(C(=O)N[C@@H](Cc2ccccn2)C(=O)O)CCCC1	17
CC(C)[C@H](S)C(=O)NC1(C(=O)N[C@@H](Cc2ccc(O)cc2)C(=O)O)CC1	17
CC(C)[C@H](S)C(=O)NC(C)(C)C(=O)N[C@@H](Cc1ccc(O)cc1)C(=O)O	67

----------
# tgt: Angiotensin-converting enzyme (Rattus norvegicus) (UniProt P47820)
# assayMethodText: Evaluation of plasma inhibition of Angiotensin I converting enzyme activity in conscious rat 1 hour after intravenous administration at a dose of 10 mg/kg
# Assay type: functional, organism-based
# Design: dose 10 mg/kg
reportedEndpoint: inhibition (%)

CC(C)[C@H](S)C(=O)NC1(C(=O)N[C@@H](Cc2ccc(O)cc2)C(=O)O)Cc2ccccc2C1	86
O=C(O)[C@H](Cc1ccc(O)cc1)NC(=O)C1(NC(=O)C2(S)CCCC2)CCCC1	3
CC(C)[C@H](S)C(=O)NC1(C(=O)N[C@@H](Cc2ccc(O)cc2)C(=O)O)CCCCC1	22
CC(C)[C@H](S)C(=O)NC1(C(=O)N[C@@H](Cc2cccs2)C(=O)O)CCCC1	79

----------
# tgt: Neprilysin (Rattus norvegicus, UniProt P07861)
# Sequence (P07861 whole entry): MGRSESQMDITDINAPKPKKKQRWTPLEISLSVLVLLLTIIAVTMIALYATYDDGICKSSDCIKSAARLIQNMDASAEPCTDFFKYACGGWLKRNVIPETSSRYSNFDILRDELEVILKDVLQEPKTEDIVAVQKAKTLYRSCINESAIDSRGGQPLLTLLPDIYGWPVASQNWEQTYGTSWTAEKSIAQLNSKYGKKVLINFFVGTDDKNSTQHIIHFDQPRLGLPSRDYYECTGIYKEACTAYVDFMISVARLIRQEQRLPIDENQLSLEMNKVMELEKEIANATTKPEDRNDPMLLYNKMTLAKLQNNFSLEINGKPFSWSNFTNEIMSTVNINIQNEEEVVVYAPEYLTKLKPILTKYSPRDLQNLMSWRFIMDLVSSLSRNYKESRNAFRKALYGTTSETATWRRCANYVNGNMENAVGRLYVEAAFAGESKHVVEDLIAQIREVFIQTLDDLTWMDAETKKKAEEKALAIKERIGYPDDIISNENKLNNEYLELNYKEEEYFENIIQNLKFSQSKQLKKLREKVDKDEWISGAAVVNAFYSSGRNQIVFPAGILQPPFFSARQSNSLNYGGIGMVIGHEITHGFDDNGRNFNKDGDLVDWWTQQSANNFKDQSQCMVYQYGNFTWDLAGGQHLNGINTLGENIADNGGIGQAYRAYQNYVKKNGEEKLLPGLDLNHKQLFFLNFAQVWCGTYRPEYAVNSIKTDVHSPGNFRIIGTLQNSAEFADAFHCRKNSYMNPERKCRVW
# assayMethodText: Evaluation of in vitro inhibitory activity against Neutral endopeptidase
pIC50: −log10 of the molar value.
reportedEndpoint: pIC50

CC(C)[C@H](S)C(=O)NC1(C(=O)N[C@@H](Cc2cccs2)C(=O)O)CCCC1	8.82
CC(C)[C@H](S)C(=O)NC1(C(=O)N[C@@H](Cc2ccc(O)cc2)C(=O)O)CCOCC1	8.19
CC(C)[C@H](S)C(=O)NC1(C(=O)N[C@@H](Cc2ccc(O)cc2)C(=O)O)CCCC1	8.82
CC(C)CC(NP(=O)(O)OC1O[C@@H](C)[C@H](O)[C@@H](O)[C@H]1O)C(=O)N[C@@H](Cc1c[nH]c2ccccc12)C(=O)O (single isomer, unassigned)	7.59
O=C(CS)NC1(C(=O)N[C@@H](Cc2ccc(O)cc2)C(=O)O)CCCC1	7.82
CC(C)[C@H](S)C(=O)NC1(C(=O)N[C@@H](Cc2ccc(F)cc2)C(=O)O)CCCC1	8.74
CC(C)[C@H](S)C(=O)NC1(C(=O)N[C@@H](Cc2ccc(O)cc2)C(=O)O)CCCCC1	8.06
O=C(O)[C@H](Cc1ccc(O)cc1)NC(=O)C1(NC(=O)C2(S)CCCC2)CCCC1	8.28
CC(C)[C@H](S)C(=O)NC1(C(=O)N[C@@H](CCc2ccccc2)C(=O)O)CCCC1	8.92
CC(C)[C@H](S)C(=O)NC1(C(=O)N[C@@H](Cc2ccccn2)C(=O)O)CCCC1	8.52
COc1ccc(C[C@H](NC(=O)C2(NC(=O)[C@@H](S)C(C)C)CCCC2)C(=O)O)cc1	8.66
